Numbers sourced from paper PMC10569036.

Test: shake flask on a mixture of 185; loss from the water phase only; LC-QTOF peak areas
Conditions: room
Output: class label from log partition cyclohexane / HPLC water, unbuffered, traces of methanol / DMSO. Mapping: lower band = under -0.8 log10, central band = from -0.8 log10 up to 1 log10, upper band = 1 log10 and over

Here's what some known entries look like.
CO/C=C(/C(=O)OC)c1ccccc1Oc1cc(Oc2ccccc2C#N)ncn1 ... upper band
CO/N=C(/C1=NOCCO1)c1ccccc1Oc1ncnc(Oc2ccccc2Cl)c1F ... upper band
O=C(Nc1ccccc1-c1ccc(Cl)cc1)c1cccnc1Cl ... upper band
Cc1cc2c3c(c1)C(c1ccccc1)=N[C@@H](NC(=O)c1ccncc1)C(=O)N3CC2 ... central band
Nc1cc2c3c(c1)C(c1ccccc1)=N[C@@H](NC(=O)c1cccnc1)C(=O)N3CC2 ... lower band
CC(C)N1C(=O)c2ccccc2NS1(=O)=O ... lower band
c1ccc2[nH]c(-c3cscn3)nc2c1 ... lower band
CN/C(=N/[N+](=O)[O-])NCC1CCOC1 (stereo not shown) ... lower band

Query: Just checking, what class would you give `CCc1ccc(C(=O)NN(C(=O)c2cc(C)cc(C)c2)C(C)(C)C)cc1` here?
Result: upper band

Query: Now consider `Cc1oncc1C(=O)Nc1ccc(C(F)(F)F)cc1` and answer again.
Result: central band

----------
Assay: shake flask on a mixture of 185; loss from the water phase only; LC-QTOF peak areas
Conditions: room
Grouping rule (log partition chloroform / HPLC water, unbuffered, traces of methanol / DMSO): low = under 0.5 log10, medium = from 0.5 log10 up to 2 log10, high = 2 log10 and over

CCC(C)(CC)c1cc(NC(=O)c2c(OC)cccc2OC)on1 ... high
CC(C)N1C(=O)c2ccccc2NS1(=O)=O ... low
c1coc(-c2nc3ccccc3[nH]2)c1 ... medium

Query: Classify this molecule: `OCCN(CCO)c1ccccc1`
Result: low

Query: For `Oc1c(Cl)cc(Cl)cc1Sc1cc(Cl)cc(Cl)c1O` then?
Result: medium

Query: Now the molecule `CCOc1ccc2[nH]cc(C(=O)NCc3ccccc3)c(=O)c2n1`
Result: high

Query: Also CC(C)C1(C)N=C(c2nc3ccccc3cc2C(=O)O)NC1=O (stereo not drawn) , if possible.
Result: low

Query: One more molecule: `Oc1c(Cl)cc(Cl)c(Cl)c1Cc1c(O)c(Cl)cc(Cl)c1Cl`
Result: high

Query: What do you get for `CCCOC(=O)c1ccc(C(=O)OCCC)nc1` ?
Result: high

Query: Request: CN/C(=N/[N+](=O)[O-])NCC1CCOC1 (stereo not drawn)
Result: low

Query: Another molecule to look at: `Cc1cc2c3c(c1)C(c1ccccc1)=N[C@@H](NC(=O)c1ccncc1)C(=O)N3CC2`
Result: high

----------
Measured log partition 1-octanol / HPLC water, unbuffered, traces of methanol / DMSO, listed per entry for reference.
Assay: shake flask on a mixture of 185; loss from the water phase only; LC-Orbitrap peak areas
Settings: room
Give the value, in units of log10, as a plain number.

CCC(C)(CC)c1cc(NC(=O)c2c(OC)cccc2OC)on1 ... 2.911
COC(=O)c1sccc1S(N)(=O)=O ... 1.602

Query: Sample C=CC(=O)OCC1CC2CC1C1CCC(COC(=O)C=C)C21 (centres unmarked) — what was its log partition 1-octanol / HPLC water, unbuffered, traces of methanol / DMSO?
Result: 0.2948

Query: And the next one, `CO/N=C(/C1=NOCCO1)c1ccccc1Oc1ncnc(Oc2ccccc2Cl)c1F` ?
Result: 3.061

Query: Next molecule: `C#CC(C)(C)NC(=O)c1cc(Cl)cc(Cl)c1`
Result: 2.462

Query: Moving on to the next molecule: OC(c1ccc(F)cc1)(c1cncnc1)c1ccccc1Cl (centres unmarked)
Result: 2.087

Query: Also, `CCCCCCCCCCCCN1CCCCCC1=O` please.
Result: -0.1202

Query: Do the same for `CC(=O)Oc1ccc(C(C)=O)cc1` please
Result: 0.8444

----------
The molecules listed here are annotated with their log partition 1-octanol / HPLC water, unbuffered, traces of methanol / DMSO.
Experiment: shake flask on a mixture of 185; loss from the water phase only; LC-QTOF peak areas
Details: room
Kindly answer with a numeric value in log10, unit omitted.

// solved cases for log partition 1-octanol / HPLC water, unbuffered, traces of methanol / DMSO follow
c1ccc2[nH]c(-c3cscn3)nc2c1 ... 0.8781
CC(C)N1C(=O)c2ccccc2NS1(=O)=O ... -1.303
CCc1nn(C)c(C(=O)NCc2ccc(C(C)(C)C)cc2)c1Cl ... 0.9057
CCC(C)(CC)c1cc(NC(=O)c2c(OC)cccc2OC)on1 ... 1.786
CO/C=C(/C(=O)OC)c1ccccc1Oc1cc(Oc2ccccc2C#N)ncn1 ... 2.62
Oc1c(Cl)cc(Cl)cc1Sc1cc(Cl)cc(Cl)c1O ... 0.7477
Cn1cnc([N+](=O)[O-])c1Sc1ncnc2nc[nH]c12 ... 0.004535
O=C(Nc1ccccc1-c1ccc(Cl)cc1)c1cccnc1Cl ... 2.544

Query: Name the recorded log partition 1-octanol / HPLC water, unbuffered, traces of methanol / DMSO for `OCCN(CCO)c1ccccc1` .
Result: 0.7171

Query: Same for `Nc1cc2c3c(c1)C(c1ccccc1)=N[C@@H](NC(=O)c1cccnc1)C(=O)N3CC2`
Result: 1.4

Query: Similarly, `C[C@H](CCC(=O)O)[C@H]1CC[C@H]2[C@@H]3CC[C@@H]4C[C@H](O)CC[C@]4(C)[C@H]3CC[C@]12C` ?
Result: 0.06003

----------
Assay: shake flask on a mixture of 185; loss from the water phase only; LC-Orbitrap peak areas
Settings: room
Below, each entry is listed alongside its reported log partition n-undecane / HPLC water, unbuffered, traces of methanol / DMSO.
Only the number, expressed in log10, is required.

Example cases with answers are listed next.
CO/N=C(/C1=NOCCO1)c1ccccc1Oc1ncnc(Oc2ccccc2Cl)c1F ... 1.233
CCCCOC(=O)C(C)Oc1ccc(Oc2ccc(C(F)(F)F)cn2)cc1 (centres unmarked) ... -0.5963
CCOc1ccc2c(c1)C(C)CC(C)(C)N2 (centres unmarked) ... 0.09286
CCCCNC(=S)NCCCC ... 0.1833
CCCCNS(=O)(=O)c1ccccc1 ... -0.4781
CC(=O)CCc1ccc(OC(C)=O)cc1 ... -1.078
C=CC(=O)OCC1CC2CC1C1CCC(COC(=O)C=C)C21 (centres unmarked) ... 0.0297
Cn1cnc([N+](=O)[O-])c1Sc1ncnc2nc[nH]c12 ... -1.518

Okay, next one:
Query: What value of measured log partition n-undecane / HPLC water, unbuffered, traces of methanol / DMSO is listed for `CC(=O)Oc1ccc(C(C)=O)cc1` ?
Result: -0.7594

----------
Assay: shake flask on a mixture of 185; loss from the water phase only; LC-Orbitrap peak areas
Details: room
experimental.readout: log partition cyclohexane / HPLC water, unbuffered, traces of methanol / DMSO (log10)
Provide the reading as a plain figure in log10.

# count of solved cases: 5
O=P(OC(CCl)CCl)(OC(CCl)CCl)OC(CCl)CCl ... 0.5355
CC(=O)c1ccc2ccccc2c1 ... -0.222
CCCCNS(=O)(=O)c1ccccc1 ... -0.2649
Nc1nc(Cl)nc2c1ncn2[C@H]1C[C@H](O)[C@@H](CO)O1 ... -1.47
CN(C1CCCCC1)S(=O)(=O)c1ccccc1N ... 0.7696

Query: Which measured log partition cyclohexane / HPLC water, unbuffered, traces of methanol / DMSO value corresponds to `CC(C)(C#N)Nc1nc(Cl)nc(NC2CC2)n1` ?
Result: -0.1053

Query: Next up: OC(c1ccc(F)cc1)(c1cncnc1)c1ccccc1Cl (stereo not drawn)
Result: 2.077

----------
Assay: shake flask on a mixture of 185; loss from the water phase only; LC-Orbitrap peak areas
Settings: room
Decision: log partition cyclohexane / HPLC water, unbuffered, traces of methanol / DMSO beneath -0.5 log10 gives criterion met; log partition cyclohexane / HPLC water, unbuffered, traces of methanol / DMSO meeting or exceeding -0.5 log10 gives criterion not met.

Observe how each entry below is paired with its result.
O=C(O)c1ccccc1C(c1ccc(O)cc1)c1ccc(O)cc1 ... criterion met
CCCCCCC(O)CCCCCCCCCCC(=O)OC (stereo not shown) ... criterion not met
CC(=O)CCc1ccc(OC(C)=O)cc1 ... criterion met
CCOC(=O)CC(=O)c1ccccc1 ... criterion met
CC(C)N1C(=O)c2ccccc2NS1(=O)=O ... criterion not met
N#CC(c1ccccc1)c1ccccc1 ... criterion not met

Read the next record carefully.
Query: Answer whether the compound `CCOc1ccc2[nH]cc(C(=O)NCc3ccccc3)c(=O)c2n1` has log partition cyclohexane / HPLC water, unbuffered, traces of methanol / DMSO strictly less than -0.5 log10
Result: criterion met
